Test system: K-562
Test: NCI single-dose GI%, leukemia
Type: cell-based, human
Conditions: K-562, leukemia; 10.0 μM in one dose
Outcome label depends on GI% relative to 30%: at/above gives satisfied, below gives not satisfied.

Confirm if GI% reported for the molecule Cc1ccc(C2=NN(C(=O)c3ccc(S(C)(=O)=O)cc3)C(c3ccc(C)cc3)C2)cc1 (stereo not shown) [Compound 18g] is 30% or above.
satisfied

Confirm if GI% reported for the molecule CS(=O)(=O)c1ccc(C(=O)N2N=C(c3ccccc3)CC2c2ccc3c(c2)OCO3)cc1 (stereo not shown) [Compound 18m] is 30% or above.
satisfied

Confirm if GI% reported for the molecule COc1ccc(C2CC(c3ccc(OC)cc3OC)=NN2C(=O)c2ccc(S(C)(=O)=O)cc2)cc1 (stereo not shown) [Compound 18o] is 30% or above.
satisfied

Confirm if GI% reported for the molecule CS(=O)(=O)c1ccc(C(=O)N2N=C(c3ccccc3)CC2c2ccc(F)cc2)cc1 (stereo not shown) [Compound 18c] is 30% or above.
satisfied

Confirm if GI% reported for the molecule CS(=O)(=O)c1ccc(C(=O)N2N=C(c3ccccc3)CC2c2ccccc2O)cc1 (stereo not shown) [Compound 18h] is 30% or above.
satisfied

Confirm if GI% reported for the molecule CS(=O)(=O)c1ccc(C(=O)N2N=C(c3ccccc3)CC2c2ccccc2)cc1 (stereo not shown) [Compound 18a] is 30% or above.
not satisfied

Confirm if GI% reported for the molecule CS(=O)(=O)c1ccc(C(=O)N2N=C(c3ccc(F)cc3)CC2c2ccc(F)cc2)cc1 (stereo not shown) [Compound 18e] is 30% or above.
not satisfied
